System: BaF3-TEL-cKIT
Test: Cell proliferation, Cell Titer-Glo, GI50
Type: cell-based
Settings: Mus musculus, 72 hours
PROPERTY_MEASURED: log10 GI50 (log10 of the value in nM)
Note the log scale: values are log10 of GI50 expressed in nM.

Checklist item: log10 GI50 tested on BaF3-TEL-cKIT, entry Nc1ncnc2c1c(-c1ccc(OCCN3CCOCC3)cc1)nn2-c1ccc(NC(=O)Nc2ccc(Cl)c(C(F)(F)F)c2)cc1 , value?
2.15

Can you check CC(C)(C)c1ccc(NC(=O)Nc2ccc(-n3nc(-c4ccc(OCCN5CCOCC5)cc4)c4c(N)ncnc43)cc2)cc1 next?
3.00

Can you check CC(C)(C)c1cc(NC(=O)Nc2ccc(-n3nc(-c4ccc(CN5CCOCC5)cc4)c4c(N)ncnc43)cc2)no1 next?
1.08

Can you check CC(C)(C)c1cc(NC(=O)Nc2ccc(-n3nc(-c4ccc(NS(C)(=O)=O)cc4)c4c(N)ncnc43)cc2)no1 next?
2.08

Can you check CC(=O)N1CCN(Cc2ccc(-c3nn(-c4ccc(NC(=O)Nc5cc(C(C)(C)C)on5)cc4)c4ncnc(N)c34)cc2)CC1 next?
1.49

Can you check CN(C)CCNC(=O)Nc1ccc(-n2nc(-c3ccc(OCCN4CCOCC4)cc3)c3c(N)ncnc32)cc1 next?
3.54

Can you check CC(C)(C)c1cc(NC(=O)Nc2ccc(-n3nc(-c4ccc(OCCN5CCN(S(C)(=O)=O)CC5)cc4)c4c(N)ncnc43)cc2)no1 next?
1.60

Can you check CC(C)(C)c1cc(NC(=O)Nc2ccc(-n3nc(-c4cccnc4)c4c(N)ncnc43)cc2)no1 next?
1.58

Can you check CC(C)(C)c1cc(NC(=O)Nc2ccc(-n3nc(-c4ccc(N5CCOCC5)nc4)c4c(N)ncnc43)cc2)no1 next?
1.61

Can you check CCN1CCN(Cc2ccc(-c3nn(-c4ccc(NC(=O)Nc5cc(C(C)(C)C)on5)cc4)c4ncnc(N)c34)cc2)CC1 next?
1.60

---

System: BaF3-FLT3 [ITD + D835Y]
Assay: Cell proliferation, Cell Titer-Glo, GI50
Format: cell-based
Conditions: Mus musculus, Ba/F3 FLT3-ITD, 72 hours
What GI50 was measured for each of the following?
Respond with the bare value in nM.

For the compound CC(C)(C)c1ccc(NC(=O)Nc2ccc(-n3nc(-c4ccc(OCCN5CCOCC5)cc4)c4c(N)ncnc43)cc2)cc1 [Compound 10] , what GI50 is on record?
4400

Can you check CC(=O)N1CCN(Cc2ccc(-c3nn(-c4ccc(NC(=O)Nc5cc(C(C)(C)C)on5)cc4)c4ncnc(N)c34)cc2)CC1 [Compound 21] next?
59

Can you check CC(C)(C)c1cc(NC(=O)Nc2ccc(-n3nc(-c4cccnc4)c4c(N)ncnc43)cc2)no1 [Compound 26] next?
610

Can you check CN(C)CCNC(=O)Nc1ccc(-n2nc(-c3ccc(OCCN4CCOCC4)cc3)c3c(N)ncnc32)cc1 [Compound 5] next?
1300

Can you check Nc1ncnc2c1c(-c1ccc(OCCN3CCOCC3)cc1)nn2-c1ccc(NC(=O)Nc2ccc(Cl)c(C(F)(F)F)c2)cc1 [Compound 12] next?
1600

Can you check CC(C)(C)c1cc(NC(=O)Nc2ccc(-n3nc(-c4ccc(NS(C)(=O)=O)cc4)c4c(N)ncnc43)cc2)no1 [Compound 27] next?
600

Can you check CCN1CCN(Cc2ccc(-c3nn(-c4ccc(NC(=O)Nc5cc(C(C)(C)C)on5)cc4)c4ncnc(N)c34)cc2)CC1 [Compound 20] next?
240

Can you check CC(C)(C)c1cc(NC(=O)Nc2ccc(-n3nc(-c4ccc(OCCN5CCN(S(C)(=O)=O)CC5)cc4)c4c(N)ncnc43)cc2)no1 [Compound 22] next?
100

---

What GI50 was measured for each of the following?
Test system: BaF3-TEL-FLT3 [D835V]
Assay: Cell proliferation, Cell Titer-Glo, GI50
Type: cell-based
Details: Mus musculus, 72 hours
Respond with the bare value in µM.

For the compound Nc1ncnc2c1c(-c1ccc(OCCN3CCOCC3)cc1)nn2-c1ccc(NC(=O)Nc2ccc(Cl)c(C(F)(F)F)c2)cc1 , what GI50 is on record?
0.21

Can you check CCN1CCN(Cc2ccc(-c3nn(-c4ccc(NC(=O)Nc5cc(C(C)(C)C)on5)cc4)c4ncnc(N)c34)cc2)CC1 next?
0.008

Can you check CC(C)(C)c1cc(NC(=O)Nc2ccc(-n3nc(-c4ccc(OCCN5CCN(S(C)(=O)=O)CC5)cc4)c4c(N)ncnc43)cc2)no1 next?
0.017

Can you check CC(C)(C)c1cc(NC(=O)Nc2ccc(-n3nc(-c4ccc(NS(C)(=O)=O)cc4)c4c(N)ncnc43)cc2)no1 next?
0.022

Can you check CC(C)(C)c1ccc(NC(=O)Nc2ccc(-n3nc(-c4ccc(OCCN5CCOCC5)cc4)c4c(N)ncnc43)cc2)cc1 next?
4.5

Can you check CC(C)(C)c1cc(NC(=O)Nc2ccc(-n3nc(-c4cccnc4)c4c(N)ncnc43)cc2)no1 next?
0.02

Can you check CN(C)CCNC(=O)Nc1ccc(-n2nc(-c3ccc(OCCN4CCOCC4)cc3)c3c(N)ncnc32)cc1 next?
1.7

Can you check CC(=O)N1CCN(Cc2ccc(-c3nn(-c4ccc(NC(=O)Nc5cc(C(C)(C)C)on5)cc4)c4ncnc(N)c34)cc2)CC1 next?
0.004

---

System: BaF3-FLT3 [ITD]
Test: Cell proliferation, Cell Titer-Glo, GI50
Type: cell-based
Details: Mus musculus, Ba/F3 FLT3-ITD, 72 hours
PROPERTY_MEASURED: GI50 (nM)
Respond with the bare value in nM.

For the compound CC(C)(C)c1ccc(NC(=O)Nc2ccc(-n3nc(-c4ccc(OCCN5CCOCC5)cc4)c4c(N)ncnc43)cc2)cc1 , what GI50 is on record?
24

Can you check CC(C)(C)c1cc(NC(=O)Nc2ccc(-n3nc(-c4ccc(N5CCOCC5)nc4)c4c(N)ncnc43)cc2)no1 next?
2

Can you check Nc1ncnc2c1c(-c1ccc(OCCN3CCOCC3)cc1)nn2-c1ccc(NC(=O)Nc2ccc(Cl)c(C(F)(F)F)c2)cc1 next?
3

Can you check CN(C)CCNC(=O)Nc1ccc(-n2nc(-c3ccc(OCCN4CCOCC4)cc3)c3c(N)ncnc32)cc1 next?
100
